GI50 listing for selected compounds.
Tested on: SK-MEL-5 melanoma
protocol-details: NCI tumour cell line growth inhibition, 48 h

compound	GI50
C/C=C1\C(=O)O[C@@H]2C1C[C@@H]1O[C@H]2[C@H](C)CCC/C(C)=C/CC[C@@]1(C)O (stereo partly drawn)	3.03 µM
CC(C)(C)N1CC(OC(N)=O)C1	> 100 µM

Please look at the following compound next.
-- ask // GI50 lookup, key: "O=C(O[C@H]1CN[C@H](C#Cc2cc3ncnc(Nc4ccc(OCc5cccc(F)c5)c(Cl)c4)c3s2)C1)N1CCOCC1"
-- reply 8.55 µM

---

Tested on: OVCAR-3 ovarian
protocol-details: NCI tumour cell line growth inhibition, 48 h
Where a SMILES comes first, the peptide text is derived from it. The star is where a group is joined. Boc = CC(C)(C)OC(=O)*
TGI listing for selected molecules.

-- ask Give OVCAR-3 ovarian TGI for CCOCC(NC(=O)C(CC(C)C)NC(=O)OC(C)(C)C)C(N)=O (stereo not drawn) (Boc-Leu-Ser(Et)-NH2; configuration not given here)
-- reply > 100 µM

-- ask Give OVCAR-3 ovarian TGI for "COC(=O)c1ccc(CCc2cc(O)c(Br)cc2O)cc1"
-- reply 19.8 µM

-- ask Give OVCAR-3 ovarian TGI for "CC(=N/NC(=S)N1CCCCC1)/C(C)=N\NC(=S)N1CCCCC1"
-- reply 3.39 µM

-- ask Give OVCAR-3 ovarian TGI for CC1(C)C(=O)C2(OS(=O)(=O)C(F)(F)F)CCC1C2 (stereo unspecified)
-- reply > 100 µM

---

TGI listing for selected molecules.
Test system: TK-10 renal
protocol-details: NCI tumour cell line growth inhibition, 48 h

molecule	readout-value
COc1ccc2c(c1)CCCN1CCc3cc(OC)c(OC)cc3C21 (centres undefined)	> 100 µM

-- ask // TGI lookup, key: "Cc1cc(O)c(/C=N/c2nc(-c3cccc([N+](=O)[O-])c3)cs2)c(=O)o1"
-- reply 26.6 µM

-- ask // TGI lookup, key: COC1CC2C=CC3C4OC2(/C(C)=C/C(C)C(C(C)O)OC1=O)C3C(O)C(C)C4OC(=O)c1ccc[nH]1 (centres undefined)
-- reply > 100 µM

-- ask // TGI lookup, key: "C/C(=N\O)c1cccc(Nc2nc3ccccc3c3occc23)c1"
-- reply 27.6 µM

-- ask // TGI lookup, key: "COc1cc(C)[nH]c(=O)c1CN1CCc2c(Cl)cc([C@H](OC)C3COC3)c(Cl)c2C1=O"
-- reply > 100 µM

---

Test system: COLO 205 colon
protocol-details: NCI tumour cell line growth inhibition, 48 h
outcome-measure: TGI

Look over these answered cases.
compound	readout-value
S=P(c1ccccc1)(c1ccccc1)C1(C2(P(=S)(c3ccccc3)c3ccccc3)CC2)CC1	> 100 µM
COc1cc(C)[nH]c(=O)c1CN1CCc2c(Cl)cc([C@H](OC)C3COC3)c(Cl)c2C1=O	> 100 µM
O=S(=O)(NCCCNc1cc(-c2cn(-c3ccccc3)nc2-c2cccc(O)c2)ccn1)c1cccc2ccccc12	3.29 µM
COc1cccc(-c2nc(-c3ccc(NC(=O)c4ccccc4)cc3)[nH]c2-c2ccnc(Br)c2)c1	> 100 µM

-- ask // TGI lookup, key: "CCOC(=O)c1cc(=O)oc2c1N(C)c1ncccc1N2"
-- reply > 100 µM

-- ask // TGI lookup, key: C=CCCC(C)N(C(=O)OC(C)(C)C)S(=O)(=O)c1ccc(C)cc1 (stereo not given)
-- reply > 100 µM

-- ask // TGI lookup, key: "O=C(O[C@H]1CN[C@H](C#Cc2cc3ncnc(Nc4ccc(OCc5cccc(F)c5)c(Cl)c4)c3s2)C1)N1CCOCC1"
-- reply 11.1 µM

---

Test system: SW-620 colon
protocol-details: NCI tumour cell line growth inhibition, 48 h
TGI listing for selected compounds.

Look over these answered cases.
compound	readout-value
COc1ccc(Cl)cc1NC(=O)c1c(NC(=O)C(F)(F)C(F)(F)F)sc2c1CCCCC2	> 100 µM
Cc1ccc(C(=O)CCC2C(=O)CC(C)(C)CC2=O)cc1	> 100 µM
COc1cc(C)[nH]c(=O)c1CN1CCc2c(Cl)cc([C@H](OC)C3COC3)c(Cl)c2C1=O	> 100 µM
O=C(/C=C\Nc1ccccc1O)C(Cl)(Cl)Cl	> 100 µM
CSc1nc(O)c(/C=C2\C=Nc3ccccc32)[nH]1	> 100 µM
CN(C1=NS(=O)(=O)N=C(N(C)c2ccccc2)O1)c1ccccc1	30.3 µM
CC1=C(C(=O)NCC(C)O)CC(C(=O)NCC(C)O)=C(C)N1 (stereo not given)	> 100 µM
O=C(CCc1ccccc1CO)NCCc1ccccc1	> 100 µM
Cc1cc(O)c(/C=N/c2nc(-c3cccc([N+](=O)[O-])c3)cs2)c(=O)o1	> 100 µM
COC1OC(CBr)C(OC(c2ccccc2)(c2ccccc2)c2ccccc2)C(OC(c2ccccc2)(c2ccccc2)c2ccccc2)C1OC(c1ccccc1)(c1ccccc1)c1ccccc1 (stereo not given)	> 100 µM

-- ask Give SW-620 colon TGI for "CCN(CC)Cc1cc(Nc2ccnc3cc(Cl)ccc23)cc(-c2ccc(Cl)cc2)c1O"
-- reply > 100 µM

-- ask Give SW-620 colon TGI for COc1ccc(C(=O)C(Br)C(Br)C(=O)O)cc1 (stereo not given)
-- reply 52.3 µM

---

System: MDA-N
protocol-details: NCI tumour cell line growth inhibition, 48 h
outcome-measure: TGI

-- ask // TGI lookup, key: CC(C)(C)OC(=O)NC(Cc1ccc(OCc2ccccc2)cn1)C(=O)N1CCSCC1 (stereo unspecified)
-- reply > 100 µM

-- ask // TGI lookup, key: COC1CC2C=CC3C4OC2(/C(C)=C/C(C)C(C(C)O)OC1=O)C3C(O)C(C)C4OC(=O)c1ccc[nH]1 (stereo unspecified)
-- reply > 100 µM

-- ask // TGI lookup, key: COC(=O)[C@H](Cc1ccccc1)NP(=O)(O)OCC1OC(n2cc(C)c(=O)[nH]c2=O)CC1N=[N+]=[N-] (stereo partly specified)
-- reply > 100 µM

-- ask // TGI lookup, key: COc1ccc(C(=O)C(Br)C(Br)C(=O)O)cc1 (stereo unspecified)
-- reply > 100 µM

-- ask // TGI lookup, key: "O=c1[nH]c2ccc(CC(=S)N3CCN(c4ccccc4)CC3)cc2o1"
-- reply > 76.7 µM

-- ask // TGI lookup, key: "CCOC(=O)c1cc(=O)oc2c1N(C)c1ncccc1N2"
-- reply > 100 µM

-- ask // TGI lookup, key: CC12CC3(O)OC(O1)C1(COC(=O)c4ccccc4)C3CC21OC1OC(CO)C(O)C(O)C1O (stereo unspecified)
-- reply > 100 µM

---

Tested on: HOP-62 NSCLC
protocol-details: NCI tumour cell line growth inhibition, 48 h
TGI listing for selected compounds.

Look over these answered cases.
compound	outcome-measure	readout-value
CC(=O)O[C@H]1C(=O)[C@@]2(C)[C@H]([C@H](OC(=O)c3ccccc3)[C@]3(O)C[C@H](OC(=O)[C@H](O)[C@@H](NC(=O)CC(C)C)c4ccccc4)C(C)=C1C3(C)C)[C@]1(OC(C)=O)CO[C@@H]1C[C@@H]2O	TGI	> 10 µM
COc1cc2c3c(n(Cc4ccccc4)c(=O)c2cc1OC)-c1ccccc1C3=O	TGI	> 100 µM

-- ask // TGI lookup, key: "C#Cc1cccc(Nc2ncnc3ccc(-c4cnc(Cl)c(NS(C)(=O)=O)c4)cc23)c1"
-- reply 10.7 µM

-- ask // TGI lookup, key: "CSc1nncc2[nH]cnc12"
-- reply > 100 µM

-- ask // TGI lookup, key: "Oc1ccc2ccccc2c1N=Nc1ccccn1"
-- reply > 100 µM

-- ask // TGI lookup, key: "c1ccc2c(c1)nnn2CNc1ccc(N2CCOCC2)cc1"
-- reply > 100 µM

-- ask // TGI lookup, key: CCC(c1ccc(OC)cc1)C(CC)c1ccc(O)c(CN2CCCC2)c1 (configuration not stated)
-- reply 13.4 µM

---

Tested on: MOLT-4 leukemia
protocol-details: NCI tumour cell line growth inhibition, 48 h
Where a SMILES comes first, the peptide text is derived from it. [ ]: non-standard residue; d: D form. The star is where a group is joined. ξ: configuration not given here. Propanoyl(3-(4-MeO-Ph)) = COc1ccc(CCC(=O)*)cc1; Thr(3ξ) = CC(O)[C@H](N)C(=O)O; dNMeL = CN[C@H](CC(C)C)C(=O)O; OBn = c1ccc(CO*)cc1; ξLac = CC(O)C(=O)O
outcome-measure: log10(TGI) (log10 of the value in µM)
// stored as log10 of TGI expressed in µM

compound	test-system	outcome-measure	readout-value
CN(C)Cc1cccc(CN(C)C)[c]1[Sn]([Br])([c]1ccccc1)[c]1ccccc1	MOLT-4 leukemia	log10(TGI)	1.31

-- ask // log10(TGI) lookup, key: O=C1OC(C2OC(=O)c3cc(O)c(O)c(O)c3-c3c(O)c(O)c4oc(=O)c5c(c(O)c(O)c6oc(=O)c3c4c65)-c3c(cc(O)c(O)c3O)C(=O)OCC2O)C2OC(=O)c3c(c(O)c(O)c(O)c3[C@H]2O)-c2c1cc(O)c(O)c2O (stereo partly specified)
-- reply 1.81

-- ask // log10(TGI) lookup, key: "O=C(/C=C/c1cccs1)c1cccc(C(=O)/C=C/c2cccs2)n1"
-- reply 0.82

-- ask // log10(TGI) lookup, key: "CN(C)CCNC(=O)c1ccc(NCCCN(C)CCCNc2ccc(C(=O)NCCN(C)C)c3[nH]c4ccc([N+](=O)[O-])cc4c(=O)c23)c2c(=O)c3cc([N+](=O)[O-])ccc3[nH]c12"
-- reply -1.21

-- ask // log10(TGI) lookup, key: COc1ccc(CCC(=O)OC(C)[C@H](NC(=O)[C@@H](CC(C)C)N(C)C(=O)[C@@H]2CCCN2C(=O)C(C)O)C(=O)OCc2ccccc2)cc1 (stereo partly specified) (H-[ξLac]P[dNMeL][Thr(3ξ)](Propanoyl(3-(4-MeO-Ph)))-OBn)
-- reply 1.80

-- ask // log10(TGI) lookup, key: CC(=O)NC1C(OCc2ccccc2)OC(COC(=O)CCCCCNc2ccc([N+](=O)[O-])c3[nH]c4ccc(O)cc4c(=O)c23)C(O)C1OC(C)C(=O)N[C@@H](C)C(=O)N[C@H](CCC(=O)OCc1ccccc1)C(N)=O (stereo partly specified)
-- reply 0.75

meta.source: PubChem BioAssay (NCI)
